// provenance: PubChem BioAssay

Test: HDN33 neuroblastoma growth inhibition, cell-based, chromothripsis tumors, cisplatin or BGB combos (AID 1671450);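 note: cells exposed to compound for four days; 0% = vehicle DMSO and 100% = cell killing by high DMSO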
Conditions: HDN33 neuroblastoma cells, cisplatin combo, at 5 µM, stronger effect = higher value
assay-endpoint: inhibition (%)
Answers are plain numbers, in %.

Reference set, count: 3
molecule	reading-unit	inhibition
O=c1[nH]c(-c2ccc(C(F)(F)F)cc2)nc2c1CSCC2	%	8.16
CCc1c2c(nc3ccc(O)cc13)-c1cc3c(c(=O)n1C2)COC(=O)[C@]3(O)CC	%	98.4
O=c1cc(-c2cccc3c2Sc2ccccc2S3)oc(N2CCOCC2)c1	%	-6.5

--- query ---
Problem: Query: inhibition; subject: O=C(Nc1ccncc1)c1cc([N+](=O)[O-])ccc1Cl
Result: 3.19

----------
Test: growth inhibition of RCMB18 medulloblastoma cells, cell-based, cisplatin and BGB IC40 combos (AID 1671462);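 note: cells exposed to compound for four days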
Settings: at 0.5 µM, stronger effect = higher value
Calls of active or inactive are those of the source. No stated cut-off is given here; in the data, active means inhibition above about 80%; inactive means the rest.
assay-endpoint: inhibition

Illustrative cases are given below, each with its answer.
molecule	inhibition
O=c1[nH]c(-c2ccc(C(F)(F)F)cc2)nc2c1CSCC2	-18.1% (inactive)
CCc1c2c(nc3ccc(O)cc13)-c1cc3c(c(=O)n1C2)COC(=O)[C@]3(O)CC	30.1% (inactive)
O=c1cc(-c2cccc3c2Sc2ccccc2S3)oc(N2CCOCC2)c1	-11.1% (inactive)

Continue with the molecule presented below.
Problem: Endpoint output: inhibition of NC(=O)c1ncn(C2OC(CO)C(O)C2O)n1 (centres undefined) . Value?
Result: 9.1% (inactive)

----------
What log fold change Tl+ flux was measured for each of the following?
Test system: R275C/beta4
Assay: modulators of BK channel variants, profiling panel, selectivity assay, cell-based, U2OS BacMam, thallium flux, beta subunits (AID 1259406);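 note: initial slope of Thallos dye fluorescence rise after thallium is added; log ratio against the mean of 0.3% DMSO vehicle wells on the same plate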
Details: at 30 µM
Numbers only.

Some molecules with recorded log fold change Tl+ flux:
molecule	system-under-test	recorded-measurement
CCOC(=O)Cn1c(-c2c(Cl)cccc2Cl)noc1=O	R275C/beta4	-0.018
Clc1ccc(-c2nc(-c3cnccn3)no2)cc1	R275C/beta4	0.00987
O=C(Nc1ccc(F)cc1)N1CCN(Cc2ccccc2)CC1	R275C/beta4	0.0882
FC(F)(F)COc1ccc(-c2nnc(SCc3ccccc3C(F)(F)F)o2)cn1	R275C/beta4	0.0273
Cc1ncc(CSc2nc(C(C)(C)C)cs2)c(CO)c1O	R275C/beta4	0.00379
O=C(Nc1ccc(-n2ccc(C(F)(F)F)n2)cc1)C1=Cc2cc(Cl)ccc2OC1	R275C/beta4	-0.0139
Cc1cc(=O)oc2cc(NC(=O)C3CCC(=O)N3)ccc12 (stereo not given)	R275C/beta4	-0.0203
O=S(=O)(Nc1cc(Cl)c(-n2cccc2)cc1Oc1ccc(Cl)cc1)c1ccc(Cl)cc1	R275C/beta4	0.0232
O=S(=O)(c1ccc(N2CCOCC2)nc1)N1CCN(c2c(Cl)cncc2Cl)CC1	R275C/beta4	-0.0287

# ---- query molecule ----
Problem: What does the data say about its log fold change Tl+ flux? Entry: O=S(=O)(NCc1ccc2c(c1)CCO2)c1cccs1
Result: -0.0665

----------
Experiment: inhibition of 3D7 malaria parasite growth – strain 3D7 (AID 2306);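 note: 0% = DMSO wells and 100% = chloroquine plus artemisinin control wells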
Conditions: P. falciparum 3D7 erythrocytic growth, LDH absorbance, 72 h; at 2 µM; stronger effect = higher value
assay-endpoint: growth inhibition (%)
Give bare numbers, in %.

molecule	growth inhibition / %
O=C(c1ccccc1)N(Cc1ccccc1-c1ccc(CNCCc2ccccc2)cc1)C1CCN(Cc2ccccc2)CC1	95
O=C(NCCN1CCC(c2ccncc2)CC1)c1ccc(Nc2nccc(Nc3ccc(Oc4ccccc4)cc3)n2)cc1	102
c1cc(CN2CCCCC2)cc(-c2ccc(-c3nc4ccccc4[nH]3)s2)c1	101
Nc1nc(N)c2c(Sc3ccc(F)cc3)cccc2n1	88
O=C(Cc1ccc(Nc2nccc(Nc3cccc4[nH]ncc34)n2)cc1)Nc1ccc(C(F)(F)F)cc1	100

Would you mind listing growth inhibition for each of the following molecules?
1. O=C(Nc1ccc(CN2CCOCC2)cc1)c1ccc(-c2cc(Cl)ccc2Cl)o1
2. COc1ccc(-c2cnc3ccc(NCc4ccc(S(N)(=O)=O)cc4)nn23)cn1
3. Clc1ccc(CNCCCCCCCNCc2ccc(Cl)c(Cl)c2)cc1Cl
4. COc1ccc(-c2cnc3[nH]cc(-c4ccncc4)c3c2)cc1OC
5. COc1ccc(-c2ccc(NC(=O)c3cccc(C#N)c3)cc2)cc1CN1CCNCC1

Result:
101
98
99
98
101

----------
Experiment: ovarian cancer cell viability with rucaparib, profiling panel, oncology-focused library, rucaparib conditional (AID 1508598)
Conditions: patient-derived ovarian cancer cells, CellTiter-Glo viability, 144 h; at 0.0781 µM; OCI-P5x cells; with rucaparib 20 µM; 100% = cells with rucaparib alone
Calls of active or inactive are those of the source.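 How the source made its calls: active means normalized viability below 100% at a tested concentration; inactive means the rest.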
Returns: one label drawn from 1 = active, -1 = inactive

Some entries whose results are on file:
molecule	qualitative-label
Cc1ccc(S(=O)(=O)/C=C/C#N)cc1	1
O=C(O)Cc1cccc(OCCCN(Cc2cccc(C(F)(F)F)c2Cl)CC(c2ccccc2)c2ccccc2)c1	-1
CS(=O)c1ccc(-c2nc(-c3ccc(F)cc3)c(-c3ccncc3)[nH]2)cc1 (stereo not given)	-1
O=c1[nH]c(-c2ccc(C(F)(F)F)cc2)nc2c1CSCC2	-1
CN(C)CCCn1cc(C2=C(c3c[nH]c4ccccc34)C(=O)NC2=O)c2ccccc21	-1

Problem: Record lookup: outcome of this test for O=C1CN2Cc3c(ccc(Cl)c3Cl)N=C2N1 ?
Result: 1

Problem: // return assay outcome for O=c1cc(-c2cccc3c2Sc2ccccc2S3)oc(N2CCOCC2)c1
Result: -1

Problem: What call does the record list for C[C@H](NC(=O)Cc1cc(F)cc(F)c1)C(=O)N[C@H](C(=O)OC(C)(C)C)c1ccccc1 ?
Result: -1

Problem: So what was the verdict on Nc1nc(F)nc2c1ncn2[C@@H]1O[C@H](COP(=O)(O)O)[C@@H](O)[C@@H]1O in this test?
Result: -1

Problem: So what was the verdict on Nc1nc(Cl)nc2c1ncn2[C@H]1C[C@H](O)[C@@H](CO)O1 in this test?
Result: -1

----------
Assay: fluorescence interference in NS3h assay format, artefact control for HCV NS3 helicase inhibitor project, biochemical, NIH Clinical Collection (AID 743272);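 note: HCV NS3 helicase with a Cy5 labelled single stranded DNA probe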
Conditions: fluorescence interference counterscreen, stronger effect = lower value
assay-endpoint: fluorescence ratio
One number for each entry.

molecule	fluorescence ratio
Cc1c(O)c(=O)ccn1C	0.92
COC(=O)Nc1nc2ccc(C(=O)c3ccc(F)cc3)cc2[nH]1	0.95
CCCc1nc(C(C)(C)O)c(C(=O)O)n1Cc1ccc(-c2ccccc2-c2nn[nH]n2)cc1	0.93
CN(C)[C@@H]1C(=O)C(C(=O)NCN2CCCC2)=C(O)[C@@]2(O)C(=O)C3=C(O)c4c(O)cccc4[C@@](C)(O)C3CC12 (stereo partly drawn)	0.76
CCN(CC)CC#CCOC(=O)C(O)(c1ccccc1)C1CCCCC1 (stereo not drawn)	0.97

Go through the list and state fluorescence ratio for each entry.
1. CCOC(=O)c1ccc(OC(=O)CCCCCN=C(N)N)cc1
2. OC[C@H]1O[C@@H](n2cnc3c(NC4CCCC4)nc(Cl)nc32)[C@@H](O)C1O (stereo partly drawn)
3. O=C1CN2Cc3c(ccc(Cl)c3Cl)N=C2N1
4. O=c1c(O[C@@H]2O[C@H](CO)[C@@H](O)[C@H](O)[C@H]2O)c(-c2ccc(O)c(O)c2)oc2cc(O)cc(O)c12
5. CC[C@]1(O)CC2CN(CCc3c([nH]c4ccccc34)[C@@](C(=O)OC)(c3cc4c(cc3OC)N(C=O)[C@H]3[C@@](O)(C(=O)OC)[C@H](OC(C)=O)[C@]5(CC)C=CCN6CC[C@]43[C@@H]65)C2)C1 (stereo partly drawn)
6. COc1cc(N)c(Cl)cc1C(=O)N[C@@H]1CCN(CCCOc2ccc(F)cc2)C[C@@H]1OC
7. C[C@H]1[C@@H](OC(=O)CCC(=O)O)O[C@@H]2OC3(C)CC[C@H]4[C@H](C)CC[C@@H]1[C@@]24OO3

Result:
1. 0.95
2. 0.97
3. 1.02
4. 0.99
5. 0.92
6. 0.96
7. 0.99

State the recorded fluorescence ratio for every item in the following list.
1. O=c1cnn([C@@H]2O[C@H](CO)[C@@H](O)[C@H]2O)c(=O)[nH]1
2. CC(CCCCC(=O)Nc1ccc(C(F)(F)F)cc1)NCCc1cnc[nH]1 (stereo not drawn)
3. CC(C)NCC(O)c1ccc(NS(C)(=O)=O)cc1 (stereo not drawn)

Result:
[0.89, 0.92, 0.98]

----------
System: R275C
Assay: modulators of BK channel variants, profiling panel, selectivity assay, cell-based, U2OS BacMam, thallium flux, beta subunits (AID 1259406);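 note: initial slope of Thallos dye fluorescence rise after thallium is added; log ratio against the mean of 0.3% DMSO vehicle wells on the same plate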
Settings: at 30 µM
Answer each item with its documented log fold change Tl+ flux.
One number for each entry.

Some compounds with recorded log fold change Tl+ flux:
compound	recorded-measurement
N#Cc1cc(-c2ccccc2)oc1NC(=O)c1cccs1	0.00241
O=C(Nc1ccc(OC(F)(F)F)cc1)OC1CN(C(c2ccccc2)c2ccccc2)C1	-0.0449
CCOC(=O)c1ccc(N2CCOCC2)c(N=Cc2cc(Cl)cc(Cl)c2O)c1	-0.00571
CC(COc1ccccc1Cc1ccccc1)N1CCCCC1 (centres undefined)	-0.246
Cc1ccc(S(=O)(=O)c2ncsc2SCc2ccc(Cl)cc2Cl)cc1	-0.00241
NNC(=O)Cc1csc2nc(-c3ccccc3)nn12	0.0143
FC(F)(F)c1cc(-c2noc(-c3ccc4c(c3)CCO4)n2)cc(C(F)(F)F)c1	0.0291
CC(C)=CC(C)=NNc1c([N+](=O)[O-])cc(C(F)(F)F)cc1[N+](=O)[O-]	0.043

# return log fold change Tl+ flux for each item in the list
1. CC1(C)CCc2cc(C=NNC(=O)c3cccc(Cl)c3Cl)ccc2O1
2. COC(OC)c1ccc(C#N)c(SC)n1
3. Cc1cc(N=CN(C)C)c2ccccc2n1
4. COC(=O)c1cc(C)nc(Sc2n[nH]c(-c3cc(Cl)cc(Cl)c3)n2)n1
5. O=C(Cn1nnc(N2CCCC2)n1)NN=Cc1ccc(Cl)cc1
6. CN1CCC[C@H]1c1cccnc1
7. COc1nc(C)nc(Cl)c1NC1=NCCN1
8. CCC(C)(C)N=C(NC#N)Nc1cccnc1

Result:
-0.00408
-0.0258
0.0312
0.00719
0.0738
0.033
-0.0325
-0.0443

Parameter requested: log fold change Tl+ flux. Apply to each item below.
1. C=CC1=C(C(=O)O)N2C(=O)[C@@H](NC(=O)C(=NOCC(=O)O)c3csc(N)n3)[C@H]2SC1
2. C1=CC=CC(C2C=CC=CC=C2)C=C1
3. FC(F)(F)c1cc(C=Cc2noc(-c3ccc(CN4CCCC4)cc3)n2)cc(C(F)(F)F)c1
4. Cc1cc(Sc2nnc(N=CN(C)C)s2)c2ccccc2n1
5. Cc1c(C(=O)CSc2n[nH]c(=O)n2C(C)c2ccccc2)sc2ccc(Cl)cc12 (centres undefined)
6. CCC(CO)NCCNC(CC)CO (centres undefined)
7. CC(C)(C)c1cc2nc(C(F)(F)F)cc(NN=Cc3ccccc3)n2n1

Result:
1. -0.011
2. -0.00176
3. -0.0044
4. 0.0403
5. 0.0226
6. 0.00482
7. -0.0499

Problem: Endpoint output: log fold change Tl+ flux of Cc1nn(-c2ccccc2)nc1CNC(=O)COc1ccccc1 . Value?
Result: -0.00552
